Target: GAL4-hCAR LBD (Homo sapiens)
Construct: chimeric yeast GAL4 DBD fused to an hCAR LBD
Sequence (Q14994 109-352 limits assumed): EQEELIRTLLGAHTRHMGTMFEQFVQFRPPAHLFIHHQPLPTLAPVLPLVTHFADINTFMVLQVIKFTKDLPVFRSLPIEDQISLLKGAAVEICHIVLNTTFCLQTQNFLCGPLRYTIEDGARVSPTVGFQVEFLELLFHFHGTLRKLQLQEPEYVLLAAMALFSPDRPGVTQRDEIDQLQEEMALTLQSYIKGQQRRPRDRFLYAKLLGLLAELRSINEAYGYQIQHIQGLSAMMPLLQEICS
Test: HEK293T GAL4-hCAR dual transfection reporter assay with PK11195 (antagonist displacement)
Conditions: read-out: HEK293 GAL4-hCAR EC50
measurement-kind: pEC50
Answers are plain numbers, as −log10 of the molar value.

The following compounds have reported results that may help.
compound: c1ccc2c(Cc3c[nH]c4ccccc34)c[nH]c2c1 [DIM, diindolylmethane]
pEC50: 5.76
--
compound: CC(c1c[nH]c2ccccc12)c1c[nH]c2ccccc12 [DIE, 3,3’-diindolylethane]
pEC50: 6.14

Okay, now this compound:
Q: Short answer please: pEC50, GAL4-hCAR LBD (Homo sapiens), entry CCCC(c1c[nH]c2ccccc12)c1c[nH]c2ccccc12 [nDIB]
Result: 5.63

* * *

Biological target: His-tagged CAR-LBD-SRC1 fusion protein (Homo sapiens)
Construct: The human CAR LBD (Lys^108 – Ser^352) was amplified by PCR from cDNA; HIS6
Assay: Isothermal titration calorimetry (ITC)
Settings: 25 °C; ligand 50 μM; mean of two independent experiments
measurement-kind: Kd (µM)
Answers are plain numbers, in µM.

Sample answers from the record:
molecular-string: c1ccc2c(Cc3c[nH]c4ccccc34)c[nH]c2c1
unit-abbrev: µM
Kd: 3.9

molecular-string: CC(c1c[nH]c2ccccc12)c1c[nH]c2ccccc12
unit-abbrev: µM
Kd: 0.25

Now, please, on to the next compound.
Q: So what's the measured Kd for this one? CCC(c1c[nH]c2ccccc12)c1c[nH]c2ccccc12
Result: 6
